Parameter CC50: see the listing below.
assay: in vitro; details: African green monkey, VeroE6 + CP (CC50), Vero E6-eGFP cells with CP-100356, absence of virus, MTS; numeric bounds

Data point: CO[C@@H]1C[C@@H](C(=O)NC(C[C@@H]2CCNC2=O)C(=O)C(=O)NCc2ccccc2)N(C(=O)c2cc3ccccc3[nH]2)C1 (some centres unmarked) ; CC50 = > 100 µM

# compound COc1cccc2[nH]c(C(=O)N3C[C@H](c4ccccc4)C[C@H]3C(=O)N[C@@H](C[C@@H]3CCNC3=O)C(=O)CO)cc12 ; its CC50 = > 100 µM

Value of measured CC50 for the entry O=C(NCc1ccccc1)C(=O)C(C[C@@H]1CCNC1=O)NC(=O)[C@@H]1C[C@@H](C(F)(F)F)CN1C(=O)c1cc2ccccc2[nH]1 (some centres unmarked) : > 100 µM

According to the records, this compound COc1ccc(Br)c2[nH]c(C(=O)N3C[C@@H]4CCC[C@@H]4[C@H]3C(=O)N[C@@H](C[C@@H]3CCNC3=O)C(=O)CO)cc12 displays CC50 of > 50 µM

compound O=C(NCc1ccccc1)C(=O)[C@H](C[C@@H]1CCNC1=O)NC(=O)[C@@H]1C[C@]2(CN1C(=O)c1cc3ccccc3[nH]1)CC2(F)F , CC50 observed: > 100 µM

Summary for this compound, COc1cccc2[nH]c(C(=O)N3C[C@@H]4CCC[C@@H]4[C@H]3C(=O)N[C@@H](C[C@@H]3CCNC3=O)C(=O)COCc3ccccc3)cc12 [Compound 27A] : CC50 is > 100 µM

The compound listed as Cc1ccc2[nH]c(C(=O)N3CCC4(CC4)C[C@H]3C(=O)N[C@@H](C[C@@H]3CCNC3=O)C(=O)C(=O)NC3CC3)cc2c1 shows CC50 equal to > 50 µM

The value of CC50 measured for the compound COc1cccc2[nH]c(C(=O)N3C[C@@H]4CCC[C@@H]4[C@H]3C(=O)N[C@@H](Cn3cc[nH]c3=O)C(=O)C(=O)NC3CC3)cc12 turned out to be > 50 µM

Please fill in: CC50 reported for COc1cccc2[nH]c(C(=O)N3C[C@@H]4CCC[C@@H]4[C@H]3C(=O)N[C@@H](C[C@@H]3CCCNC3=O)C(O)S(=O)(=O)O)cc12 (some centres unmarked) = > 100 µM

Note to self: CC50 recorded for O=C(NC1CC1)C(=O)C(CC1CC2(CC2)NC1=O)NC(=O)[C@@H]1[C@H]2CCC[C@H]2CN1C(=O)c1cc2c(Cl)cc(Cl)cc2[nH]1 (single isomer, unassigned) [Compound 116A] was > 50 µM

CC50 for COc1cccc2[nH]c(C(=O)N3C[C@]4(C[C@H]3C(=O)N[C@@H](C[C@@H]3CCCNC3=O)C(=O)C(=O)NC(C)C)CC4(F)F)cc12 is > 100 µM

Reported CC50 of O=C[C@H](C[C@@H]1CCCNC1=O)NC(=O)[C@@H]1[C@H]2CCC[C@H]2CN1C(=O)c1cc2ccccc2[nH]1 : > 100 µM

Query COc1cccc2[nH]c(C(=O)N3C[C@@H]4CCC[C@@H]4[C@H]3C(=O)N[C@@H](C[C@@H]3CCNC3=O)C(=O)c3nc4ccccc4[nH]3)cc12 yields CC50 of > 100 µM

The compound COc1cccc2[nH]c(C(=O)N3C[C@@H]4CCC[C@@H]4[C@H]3C(=O)N[C@@H](C[C@@H]3CCNC3=O)C(=O)c3nc4ccccc4s3)cc12 showed CC50 equal to > 100 µM

Memo: COc1cccc2[nH]c(C(=O)N3C[C@@H]4CCC[C@@H]4[C@H]3C(=O)N[C@@H](C[C@@H]3CCCNC3=O)C(=O)CO)cc12 , reported CC50: > 100 µM

According to the records, this compound O=C1NCC[C@H]1C[C@H](NC(=O)[C@@H]1[C@H]2CCC[C@H]2CN1C(=O)c1cc(S(=O)(=O)c2ccccc2)c[nH]1)C(=O)CO displays CC50 of > 50 µM

###

Target: human cathepsin L (Homo sapiens, UniProt P07711)
Construct: purchased R&D Systems
Assay: cathepsin L assay
Type: biochemical
Conditions: 10 pM human cathepsin L, Z-FR-AMC 2 μM, class symbols
Experimental: For the cathepsin L assay, 10 pM of human cathepsin L (R&D Systems; Minneapolis, MN) was preincubated for 30 mins with test compounds. […] Fluorescence was measured at 2-minute intervals for 30 mins using a 355/460 excitation/emission filter module on an Envision plate reader (Perkin Elmer; Waltham, MA). The IC50 values were calculated for each assay by fitting the curves using a four-parameter equation in GraphPad Prism.
assayReadout: IC50

For orientation, consider the following solved cases.
CS(=O)(=O)Oc1cccc2[nH]c(C(=O)N3C[C@@H]4CCC[C@@H]4[C@H]3C(=O)N[C@@H](C[C@@H]3CCNC3=O)C(=O)CO)cc12 ... ≥ 10 µM
COc1cccc2[nH]c(C(=O)N3C[C@@H]4CCC[C@@H]4[C@H]3C(=O)N[C@@H](C[C@@H]3CCNC3=O)C(=O)CO)cc12 ... ≥ 10 µM
COc1cccc2[nH]c(C(=O)N3C[C@@H]4CCC[C@@H]4[C@H]3C(=O)NC(C[C@@H]3CCNC3=O)C(=O)C(=O)NC3CC3)cc12 (some centres unmarked) ... ≥ 10 µM

GET /value?item= COc1cccc2[nH]c(C(=O)N3CCc4ccccc4[C@H]3C(=O)N[C@@H](C[C@@H]3CCNC3=O)C(=O)C(=O)NC3CC3)cc12 &field=IC50 returns ≥ 10 µM

Sure, the documented IC50 for O=C1NCC[C@H]1C[C@H](NC(=O)[C@@H]1[C@H]2CCC[C@H]2CN1C(=O)c1cc2c([nH]1)CCS2(=O)=O)C(=O)CO is ≥ 10 µM

Recorded result, COc1cccc2[nH]c(C(=O)N3C[C@H](C(F)(F)F)C[C@H]3C(=O)N[C@@H](C[C@@H]3CCCNC3=O)C(=O)COCc3ccccc3)cc12 [Compound 45A] , IC50: ≥ 10 µM

IC50 reading for O=C(NC1CC1)C(=O)C(CC1CC2(CC2)NC1=O)NC(=O)[C@@H]1[C@H]2CCC[C@H]2CN1C(=O)c1cc2c(Cl)cc(Cl)cc2[nH]1 (single isomer, unassigned) [Compound 116A] : ≥ 10 µM

Notebook: O=C[C@H](C[C@@H]1CCCNC1=O)NC(=O)[C@@H]1[C@H]2CCC[C@H]2CN1C(=O)c1cc2ccccc2[nH]1 , IC50 read as 1 to 10 µM

// recorded IC50 for O=C1NCC[C@H]1C[C@H](NC(=O)[C@@H]1[C@H]2CCC[C@H]2CN1C(=O)c1cc2c(Cl)ccc(Oc3ccccc3)c2[nH]1)C(=O)CO : ≥ 10 µM

Recorded IC50 (compound N#C[C@H](C[C@@H]1CCNC1=O)NC(=O)[C@@H]1[C@H]2CCC[C@H]2CN1C(=O)c1nc2c(Cl)ccc(Cl)c2[nH]1 ): ≥ 10 µM

Lookup result for COc1cccc2[nH]c(C(=O)N3C[C@@H]4CCC[C@@H]4[C@H]3C(=O)N[C@@H](C[C@@H]3CCNC3=O)C(=O)COP(=O)(O)O)cc12 ; measured IC50: ≥ 10 µM

###

tested on: SARS-CoV-2-GHB-03021/2020; assay: microbe, parasite or virus in culture; format: cell-based; settings: Severe acute respiratory syndrome coronavirus 2, Vero C1008, 96 h; read-out: VeroE6 + CP (EC50)
pEC50: −log10 of the molar value.
assayReadout: pEC50

COc1cccc2[nH]c(C(=O)N3C[C@@H]4CCC[C@@H]4[C@H]3C(=O)N[C@@H](C[C@@H]3CCNC3=O)C(=O)C(=O)NC3CCOCC3)cc12 ... 4.00 to 5.00
O=C(NC1CC1)C(=O)[C@H](C[C@@H]1CCNC1=O)NC(=O)[C@@H]1CC2(CCN1C(=O)c1cc3ccccc3o1)CC2 ... 5.00 to 6.00

The reported pEC50 of the compound Cn1ccc2[nH]c(C(=O)N3C[C@@H]4CCC[C@@H]4[C@H]3C(=O)N[C@@H](C[C@@H]3CCNC3=O)C(=O)CO)cc2c1=O was 4.00 to 5.00

Short answer for O=C(NCc1ccccc1)C(=O)C(C[C@@H]1CCNC1=O)NC(=O)[C@@H]1C[C@@H](C(F)(F)F)CN1C(=O)c1cc2ccccc2[nH]1 (stereo partly drawn) : pEC50 was 5.00 to 6.00

# compound O=C1NCC[C@H]1C[C@H](NC(=O)[C@@H]1[C@H]2CCC[C@H]2CN1C(=O)c1cc2c(Cl)c(F)cc(Cl)c2[nH]1)C(=O)CO ; its pEC50 = > 6.00

Memo: O=C1NCC[C@H]1C[C@H](NC(=O)[C@@H]1[C@H]2CCC[C@H]2CN1C(=O)c1cc2c(Cl)c(F)cc(F)c2[nH]1)C(=O)CO , reported pEC50: > 6.00

For COc1cccc2[nH]c(C(=O)N3C[C@@H]4CCC[C@@H]4[C@H]3C(=O)N[C@H](C=O)CC3CCNS3(=O)=O)cc12 (stereo partly drawn) the compound record lists pEC50 as < 4.30

Input O=C1NCC[C@H]1C[C@H](NC(=O)[C@@H]1[C@H]2CCC[C@H]2CN1C(=O)c1cc2c(Cl)cc(Cl)cc2[nH]1)C(=O)CO . Output pEC50: > 6.00

Consider O=C(NC1CC1)C(=O)[C@H](C[C@@H]1CCNC1=O)NC(=O)[C@@H]1CC2(CCN1C(=O)c1cc3ccccc3[nH]1)CC2 . Its measured pEC50 is 5.00 to 6.00

Note to self: pEC50 recorded for COc1cccc2[nH]c(C(=O)N3C[C@@H]4CCC[C@@H]4[C@H]3C(=O)NC(C[C@@H]3CCNC3=O)C(=O)C(C)O)cc12 (stereo partly drawn) was 4.00 to 5.00

Measured pEC50, C=CC[C@@H]1C[C@@H](C(=O)N[C@@H](C[C@@H]2CCNC2=O)C(=O)C(=O)NCc2ccccc2)N(C(=O)c2cc3ccccc3[nH]2)C1 : 4.00 to 5.00

The compound O=C(NCc1ccccc1)C(=O)[C@H](C[C@@H]1CCNC1=O)NC(=O)[C@@H]1CC2(CCN1C(=O)c1cc3ccccc3[nH]1)CC2 showed pEC50 equal to 5.00 to 6.00
